Give measured cell viability for each item. Keep answers brief.
Test system: SEM cells
assay: cell viability relative to DMSO control; higher = less cytotoxic
test_conditions: HPLM + 10% dialyzed FBS; 48 h; 0.00234 µM
I only need the number, in %, no unit after it.

For CC(=O)N1CCN(c2ccc(OCc3nn(C)c(C)c3-c3cccc4c(CCCOc5cc(C)c(Cl)c(C)c5)c(C(=O)O)n(Cc5cccnc5)c34)cc2)CC1 the compound record lists cell viability as 91.7

Entry O=C1CSC(=O)N1C(CCc1ccncc1)COc1ccc(-c2cccc([N+](=O)[O-])c2)cc1 (centres undefined) , cell viability reported as 123

Notebook: O=C(NC1CCOCC1)c1ccc(-c2cc(-c3c[nH]nc3-c3ccccn3)ccn2)cc1 , cell viability read as 108

Recorded cell viability (compound Cc1c(C(=O)Nc2ccc(N3C[C@@H](C)O[C@@H](C)C3)nc2)cccc1-c1ccc(OC(F)(F)F)cc1 ): 125

cell viability reading for O=C1Nc2ccccc2/C1=C1\Nc2ccccc2C1=O : 85.1

cell viability reading for Cc1cc(O)c2c3c4c(cc(O)c13)C(C)(C)C(=O)c1c(O)cc(O)c(c1-4)C2=O : 110

# cell viability (compound: COc1cc(N2CCC(C(N)=O)CC2)ccc1Nc1nc(N)c(Cl)c(Nc2ccccc2[S+](=O)([O-])C(C)C)n1 ) is 83.3

Data point: CNC(=O)c1cccc(-c2ccc3c(N4CCOC[C@@H]4C)nc(N4CCOC[C@@H]4C)nc3n2)c1 ; cell viability = 102

Data point: CNC(=O)[C@H](Cc1ccccc1)NC(=O)[C@H](CC(C)C)[C@H](CSc1cccs1)C(=O)NO ; cell viability = 82.9

Record COC1=CC=C2Nc3cc(Cl)ccc3C(N=C3C=C(CN4CCCC4)C(=O)C(CN4CCCC4)=C3)=C2N1 . Reported cell viability: 113

Looking up CN1CCCN(C(=O)c2cccc(-c3ccc(/C=C4/C(=O)Nc5ccc(Cl)cc54)o3)c2)CC1 , I see its cell viability listed as 106

Record CO[C@H]1C[C@@H]2CC[C@@H](C)[C@@](O)(O2)C(=O)C(=O)N2CCCC[C@H]2C(=O)O[C@H]([C@H](C)C[C@@H]2CC[C@@H](OP(C)(C)=O)[C@H](OC)C2)CC(=O)[C@H](C)/C=C(\C)[C@@H](O)[C@@H](OC)C(=O)[C@H](C)C[C@H](C)/C=C/C=C/C=C/1C , field cell viability: 97.7

GET /value?item= Cc1[nH]c(/C=C2\C(=O)Nc3ccc([S+](=O)([O-])N(C)c4cccc(Cl)c4)cc32)c(C)c1C(=O)N1CCN(C)CC1 &field=cell viability returns 120

The reported cell viability of the compound COc1cc2nccc(Oc3ccc(NC(=O)Nc4ccc(F)cc4F)c(F)c3)c2cc1OC was 86

###

Test system: SEM cells
assay: cell viability relative to DMSO control; higher = less cytotoxic
test_conditions: HPLM + 10% dialyzed FBS; 48 h; 1.71 µM
For each of the molecules below, state its cell viability.
Numbers only here, please. The scale is %.

get_value(item= C[C@]\1(CCS\C(=N1)N)C2=CC(=C(F)C=C2F)C3=CN=CN=C3 , readout=cell viability) returns 99.3

// recorded cell viability for O=C(NC1CCOCC1)c1ccc(-c2cc(-c3c[nH]nc3-c3ccccn3)ccn2)cc1 : 112

cell viability reading for COc1cc2nccc(Oc3ccc(NC(=O)C4(C(=O)Nc5ccc(F)cc5)CC4)cc3)c2cc1OC : 48.3

Record summary for OC[C@H]1O[C@@H](Oc2ccc(O)cc2)[C@H](O)[C@@H](O)[C@@H]1O : reported cell viability = 19.1

Reported cell viability ( CC(C)C[C@H](CN)CC(=O)O ) = 102

Entry CC1(C)[C@@H](O[C@H]2O[C@H](C(=O)O)[C@@H](O)[C@H](O)[C@H]2O[C@@H]2O[C@H](C(=O)O)[C@@H](O)[C@H](O)[C@H]2O)CC[C@]2(C)[C@H]3C(=O)C=C4[C@@H]5C[C@@](C)(C(=O)O)CC[C@]5(C)CC[C@@]4(C)[C@]3(C)CC[C@@H]12 — recorded cell viability = 128

Data point: O=C/1\C=C(/OC(=C1)/C2=C3SC4=C(SC3=CC=C2)C=CC=C4)N5CCOCC5 ; cell viability = 104

Lab book: cell viability of N[C@@H](C(=O)N[C@H]1[C@H]2SC\C(=C(/N2C1=O)C(O)=O)Cl)C3=CC=CC=C3 noted as 108

COc1cc2c(N3CCN(C(=O)Nc4ccc(OC(C)C)cc4)CC3)ncnc2cc1OCCCN1CCCCC1 yielded cell viability of 33.8

The measured cell viability associated with CCC(=O)O[C@@]1([C@@H](C)C[C@H]2[C@@H]3CCC/4=C/C(=O)/C=C\[C@]4(C)[C@@]3(F)[C@@H](O)C[C@]12C)C(=O)CCl reads 72.3

Field cell viability (entry CN1CCCN(C(=O)c2cccc(-c3ccc(/C=C4/C(=O)Nc5ccc(Cl)cc54)o3)c2)CC1 ) reads 71.7

Lab note: measured cell viability of Cc1cc(Nc2ncc(Cl)c(Nc3ccccc3[S+](=O)([O-])C(C)C)n2)c(OC(C)C)cc1C1CCNCC1 was 88.1

Consider CN(C)Cc1ccc(-c2nc3cccc4c3n2CCNC4=O)cc1 . Its measured cell viability is 121

Form: molecule = COc1cc(N2CCC(O)CC2)ccc1Nc1cc(Nc2ccccc2[S+](=O)([O-])C(C)C)c2cc[nH]c2n1 ; cell viability = 83.4

// O=C1CSC(=O)N1C(CCc1ccncc1)COc1ccc(-c2cccc([N+](=O)[O-])c2)cc1 (stereo not drawn) : cell viability value = 95.6

Sample O=C1Nc2ccccc2/C1=C1\Nc2ccccc2C1=O ; cell viability observed: 75

# cell viability (molecule: Cn1c2ccccc2c2c3c(c4c5ccccc5n(CCC#N)c4c21)CNC3=O ) is 41

The reported cell viability of the molecule COc1ccc(/C=C\c2cc(OC)c(OC)c(OC)c2)cc1O was 12.7

###

Consider the following compounds; for each one, report its cell viability.
Test system: SEM cells
assay: cell viability relative to DMSO control; higher = less cytotoxic
test_conditions: RPMI 5 mM glucose + 10% FBS; 48 h; 5.12 µM
Reply numerically in %, unit not repeated.

Memo: COc1cc2c(Nc3ccc(NC(=O)c4ccccc4)cc3)ncnc2cc1OCCCN1CCOCC1 , reported cell viability: 55

// cell viability value for ClC1=CC=C(CCCOC/2=N/NC(=O)C(=C2NCC3=CN=CC=C3)/Br)C=C1 : 72.2

The value of cell viability measured for the compound CC[C@H]1OC(=O)[C@H](C)[C@@H](O[C@H]2C[C@@](C)(OC)[C@@H](O)[C@H](C)O2)[C@H](C)[C@@H](O[C@@H]2O[C@@H](C)C[C@H](N(C)C)[C@H]2O)[C@](C)(O)C[C@@H](C)C(=O)[C@H](C)[C@@H](O)[C@]1(C)O turned out to be 94.8

cell viability recorded for this compound, Fc1cc(-c2cccc3ncc(-c4cnn(C5CCNCC5)c4)nc23)cc(F)c1CN1CCOCC1 , is 27.4

GET /value?item= Cc1[nH]c(/C=C2\C(=O)Nc3ccc([S+](=O)([O-])N(C)c4cccc(Cl)c4)cc32)c(C)c1C(=O)N1CCN(C)CC1 &field=cell viability returns 54.3

cell viability measured on CO[C@H]1C[C@@H]2CC[C@@H](C)[C@@](O)(O2)C(=O)C(=O)N2CCCC[C@H]2C(=O)O[C@H]([C@H](C)C[C@@H]2CC[C@@H](OP(C)(C)=O)[C@H](OC)C2)CC(=O)[C@H](C)/C=C(\C)[C@@H](O)[C@@H](OC)C(=O)[C@H](C)C[C@H](C)/C=C/C=C/C=C/1C = 63.7

Briefly, cell viability measured for O=C1CSC(=O)N1C(CCc1ccncc1)COc1ccc(-c2cccc([N+](=O)[O-])c2)cc1 (stereo not given) : 98.6

Input CN1C(=O)\C(=C/C(=C1/NC2=C(F)C=C(I)C=C2)C(=O)NOCCO)C . Output cell viability: 84

get_value(item= COc1cc2nccc(Oc3ccc(NC(=O)Nc4ccc(F)cc4F)c(F)c3)c2cc1OC , readout=cell viability) returns 56.4

# cell viability (compound: CNC(=O)[C@H](Cc1ccccc1)NC(=O)[C@H](CC(C)C)[C@H](CSc1cccs1)C(=O)NO ) is 77.7

So for NC(=O)c1ccc(-c2nc(-c3ccc4c(c3)OCCO4)c(-c3ccccn3)[nH]2)cc1 , the logged cell viability turned out to be 119

Noted for O=C1Nc2ccccc2/C1=C1\Nc2ccccc2C1=O : its cell viability reads 81.4

Reported cell viability ( C[C@H]([C@H](O)CCC(C)(C)O)[C@H]1CC[C@@]2(O)C/3=C/C(=O)[C@@H]4C[C@@H](O)[C@@H](O)C[C@]4(C)[C@H]3CC[C@]12C ) = 125

Lab book: cell viability of O=[N+]([O-])c1cn2c(n1)OC[C@@H](OCc1ccc(OC(F)(F)F)cc1)C2 noted as 114

cell viability in this record for CC(C)(C)/[N+]([O-])=C/c1ccc([S+](=O)([O-])[O][Na])cc1[S+](=O)([O-])[O][Na] : 116

These data points were gathered from the supplement of paper PMC11451515.
